target.entity: BTK T474I (Homo sapiens, UniProt Q06187, T474I)
Sequence (Q06187 whole entry T474I): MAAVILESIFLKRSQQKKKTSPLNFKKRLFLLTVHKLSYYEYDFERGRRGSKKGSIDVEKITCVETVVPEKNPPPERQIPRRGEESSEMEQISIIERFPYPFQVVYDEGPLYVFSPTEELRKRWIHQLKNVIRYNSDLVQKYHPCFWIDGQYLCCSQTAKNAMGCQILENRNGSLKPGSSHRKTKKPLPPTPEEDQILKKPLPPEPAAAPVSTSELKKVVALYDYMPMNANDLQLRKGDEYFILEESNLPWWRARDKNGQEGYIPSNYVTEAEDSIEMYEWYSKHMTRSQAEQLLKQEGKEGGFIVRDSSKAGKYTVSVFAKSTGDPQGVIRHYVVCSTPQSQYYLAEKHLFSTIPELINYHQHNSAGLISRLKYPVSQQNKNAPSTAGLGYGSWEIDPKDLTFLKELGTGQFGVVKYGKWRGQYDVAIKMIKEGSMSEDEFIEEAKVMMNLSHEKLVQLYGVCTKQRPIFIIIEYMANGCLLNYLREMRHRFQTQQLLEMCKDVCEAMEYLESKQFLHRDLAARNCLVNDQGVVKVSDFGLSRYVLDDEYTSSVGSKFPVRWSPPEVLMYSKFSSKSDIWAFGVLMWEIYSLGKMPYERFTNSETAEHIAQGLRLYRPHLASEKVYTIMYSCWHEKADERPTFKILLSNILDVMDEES
assay.info: Kinase activity inhibition assay (HTRF TK Kit)
readout.kind: IC50

Dear colleague, could you please provide IC50 for the compounds listed below?
1. COc1ccc(F)cc1C(=O)NCc1ccc(-c2ncc(-c3ccc(P(C)(C)=O)cn3)c3[nH]nc(N)c23)cc1
2. COc1ccc(F)cc1C(=O)NCc1ccc(-c2nc(C)c(-c3ncccn3)c3[nH]nc(N)c23)cc1
3. COc1ccc(F)cc1C(=O)NCc1ccc(-c2ncc(-c3cn4ccnc4cn3)c3[nH]nc(N)c23)cc1
4. COc1ccc(F)cc1C(=O)NCc1ccc(-c2nc(C3CCOCC3)cc3[nH]nc(N)c23)cc1
5. COc1ccc(F)cc1C(=O)NCc1ccc(-c2ncc(-c3ccc(N4CCN(C)C[C@@H]4C)cn3)c3[nH]nc(N)c23)cc1
6. COc1ccc(F)cc1C(=O)NCc1ccc(-c2ncc(-c3ccc(C(F)F)cn3)c3[nH]nc(N)c23)cc1

Ans.
5 to 50 nM
50 to 500 nM
50 to 500 nM
50 to 500 nM
5 to 50 nM
5 to 50 nM

Please look at the items below and tell me IC50 for each one, in order.
1. COc1ccc(F)cc1C(=O)NCc1ccc(-c2ncc(-c3ccc(C(=O)N4C[C@@H](C)O[C@H](C)C4)cn3)c3[nH]nc(N)c23)cc1
2. COc1ccc(F)cc1C(=O)NCc1ccc(-c2nc(C(C)C(F)(F)F)c(-c3ccn(C)n3)c3[nH]nc(N)c23)cc1 (single isomer, unassigned) [Example 6-1]
3. COc1ccc(F)cc1C(=O)NCc1ccc(-c2ncc(-c3ccn4nccc4n3)c3[nH]nc(N)c23)cc1
4. COc1ccc(F)cc1C(=O)NCc1ccc(-c2nc(C(C)C(F)(F)F)c(-c3ncccn3)c3[nH]nc(N)c23)cc1 (single isomer, unassigned) [Example 7-2]
5. COc1ccc(F)cc1C(=O)NCc1ccc(-c2nc(C(C)C(F)(F)F)c(-c3ccn(C)n3)c3[nH]nc(N)c23)cc1 (single isomer, unassigned) [Example 6-2]

Ans.
["50 to 500 nM", "5 to 50 nM", "50 to 500 nM", "50 to 500 nM", "5 to 50 nM"]

# batch size: 2; output IC50 per entry
1. COc1ccc(F)cc1C(=O)NCc1ccc(-c2ncc(-c3ccncc3)c3[nH]nc(N)c23)cc1
2. COc1ccc(F)cc1C(=O)NCc1ccc(-c2nc(C(C)C(F)(F)F)c(-c3cc(C)[nH]n3)c3[nH]nc(N)c23)cc1 (stereo not drawn)

Ans.
1. > 500 nM
2. 50 to 500 nM

The following compounds each have a reported value; give each one's IC50.
1. CCOC(=O)c1cnc2cc(-c3cnc(-c4ccc(CNC(=O)c5cc(F)ccc5OC)cc4)c4c(N)n[nH]c34)nn2c1
2. COc1ccc(F)cc1C(=O)NCc1ccc(-c2ncc(-c3ccc(N4CCN(C)C[C@H]4C)cn3)c3[nH]nc(N)c23)cc1

Ans.
> 500 nM
5 to 50 nM
